# TARGET: purified recombinant human BTK protein (Homo sapiens (Human))
# Sequence (Q06187 whole entry): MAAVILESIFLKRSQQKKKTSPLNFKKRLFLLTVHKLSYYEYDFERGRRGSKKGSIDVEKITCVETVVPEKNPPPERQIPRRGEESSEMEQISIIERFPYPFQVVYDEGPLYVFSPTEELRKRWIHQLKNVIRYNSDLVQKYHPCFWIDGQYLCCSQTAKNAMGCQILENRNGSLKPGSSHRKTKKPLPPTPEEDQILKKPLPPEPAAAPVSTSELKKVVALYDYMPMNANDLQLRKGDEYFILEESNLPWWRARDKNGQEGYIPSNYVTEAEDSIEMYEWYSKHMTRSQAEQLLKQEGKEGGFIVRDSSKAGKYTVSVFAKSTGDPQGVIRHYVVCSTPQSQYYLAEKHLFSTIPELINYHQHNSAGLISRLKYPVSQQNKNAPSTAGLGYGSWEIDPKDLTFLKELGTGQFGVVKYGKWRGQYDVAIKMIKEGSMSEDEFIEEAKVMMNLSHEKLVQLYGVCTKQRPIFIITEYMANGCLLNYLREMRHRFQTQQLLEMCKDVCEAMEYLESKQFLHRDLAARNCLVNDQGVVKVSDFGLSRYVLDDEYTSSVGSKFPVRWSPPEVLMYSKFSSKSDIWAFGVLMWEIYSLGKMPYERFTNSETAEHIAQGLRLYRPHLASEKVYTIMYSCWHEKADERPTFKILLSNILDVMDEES
# MEASUREMENT_DESCRIPTION: Measurement of BTK inhibitory activity (in vitro)
# MEASUREMENT_CONTEXT: FL-PEPTIDE 2 substrate 1 μM, ATP 45 μM, 40 minutes at 25° C.
EXPERIMENTAL_READOUT: IC50 (nM)

Here is how some compounds turned out for IC50.
COMPOUND	IC50 [nM]
C/C=C/C(=O)N1CC[C@@H](n2nc(C(=O)Nc3nc4cc(Cl)ccc4o3)c3c(N)ncnc32)C1 [Example 25]	1.17
CC(C)N(C)C/C=C/C(=O)N1CC[C@@H](n2nc(C(=O)Nc3nc4cc(Cl)ccc4o3)c3c(N)ncnc32)C1 [Example 35]	0.792
CCN(CC)C/C=C/C(=O)N1CC[C@@H](n2nc(C(=O)Nc3nc4cc(Cl)ccc4o3)c3c(N)ncnc32)C1 [Example 34]	0.79
Nc1ncnc2c1c(C(=O)Nc1nc3cc(Cl)ccc3o1)cn2[C@@H]1CCN(C(=O)/C=C/CN2CCCCC2)C1 [Example 54]	1.44
CC(C)N(C)C/C=C/C(=O)N1CCC[C@@H](n2nc(C(=O)Nc3nc4cc(Cl)ccc4o3)c3c(N)ncnc32)C1 [Example 18]	0.788

1 = CN(C)C/C=C/C(=O)N1CC[C@@H](n2nc(C(=O)Nc3nc4cc(-c5ccccc5)ccc4o3)c3c(N)ncnc32)C1 [Example 42]
2 = C=CC(=O)N1CC[C@@H](n2nc(C(=O)Nc3nc4cc(C#N)ccc4o3)c3c(N)ncnc32)C1 [Example 39]
Query: Of 1 versus 2 , which is the one with smaller reported IC50? When you have decided, please share the label of that item.
Reply: 1
(1: 0.771 nM, 2: 1.12 nM)

---

# TARGET: purified recombinant human BTK protein (Homo sapiens (Human))
# MEASUREMENT_DESCRIPTION: Measurement of BTK inhibitory activity (in vitro)
# MEASUREMENT_CONTEXT: FL-PEPTIDE 2 substrate 1 μM, ATP 45 μM, 40 minutes at 25° C.
EXPERIMENTAL_READOUT: IC50 (nM)

Worked examples, 4 compounds total:
COMPOUND	READING_UNIT	IC50
C=CC(=O)N1CCC[C@@H](n2nc(C(=O)Nc3nc4cc(C)c(C)cc4o3)c3c(N)ncnc32)C1 [Example 23]	nM	1.58
Nc1ncnc2c1c(C(=O)Nc1nc3cc(Cl)ccc3o1)nn2[C@@H]1CCN(C(=O)/C=C/CN2CCCC2)C1 [Example 36]	nM	0.867
CCN(CC)C/C=C/C(=O)N1CC[C@@H](n2cc(C(=O)Nc3nc4cc(-c5ccccc5)ccc4o3)c3c(N)ncnc32)C1 [Example 58]	nM	1.84
C=CC(=O)N1CC[C@@H](n2nc(C(=O)Nc3nc4cc(F)ccc4o3)c3c(N)ncnc32)C1 [Example 30]	nM	0.566

I = CCN(C)C/C=C/C(=O)N1CC[C@@H](n2cc(C(=O)Nc3nc4cc(-c5ccccc5)ccc4o3)c3c(N)ncnc32)C1 [Example 57]
II = C=CC(=O)N1CC[C@@H](n2nc(C(=O)Nc3nc4cc(Cl)ccc4o3)c3c(N)ncnc32)C1 [Example 24]
Query: # query: argmin of IC50 over I and II Response format: the label of the selected entry.
Reply: II

I = CCN(C)C/C=C/C(=O)N1CC[C@@H](n2cc(C(=O)Nc3nc4cc(Cl)ccc4o3)c3c(N)ncnc32)C1 [Example 50]
II = CN(C)C/C=C/C(=O)N1CC[C@@H](n2nc(C(=O)Nc3nc4cc(Cl)ccc4o3)c3c(N)ncnc32)C1 [Example 32]
Query: For the pair I and II , which member has the lower IC50 number? Answer format: the label of the selected item.
Reply: II
(II: 0.634 nM, I: 1.41 nM)
